- System: Human RSV-A (“Long” strain)
- Method: RSV in vitro cytoprotection assay (CPE, ATPlite) in HEp-2 cells
- Type: cell-based
- Cond: human respiratory syncytial virus, 96 h; HEp-2 cells, 4-day incubation, ATPlite readout; read-out: Human RSV-A (“Long” strain) EC50
pEC50: −log10 of the molar value.
pEC50 reference
Readout Name: pEC50

Cpd Smiles | Endpoint Result
Cc1cnc(N2CC3(CCOCC3)C2)c(C(=O)Nc2ccc(C(=O)N3CCc4cc(-c5c[nH]c6ccc(C)cc56)sc4-c4ccc(F)cc43)cc2)c1 | < 7.30
Cc1ccc(C(=O)Nc2ccc(C(=O)N3CCc4c(sc(NC(=O)c5c(F)cccc5F)c4F)-c4ccccc43)cc2)c(N2CC3(CCOCC3)C2)n1 | 7.30 to 8.00
Cc1cnc(N2CC3(CCOCC3)C2)c(C(=O)Nc2ccc(C(=O)N3CCc4cc(C(=O)Nc5c(F)cccc5F)sc4-c4ccc(F)cc43)cc2)c1 | > 8.00
Cc1cccc(F)c1NC(=O)c1cc2c(s1)-c1cc(F)c(F)cc1N(C(=O)c1ccc(NC(=O)c3cc(F)cnc3N3CC4(CCOCC4)C3)cc1)CC2 | 7.30 to 8.00
Cc1cnc(N2CC3(CCOCC3)C2)c(C(=O)Nc2ccc(C(=O)N3CCc4cc(C(=O)Nc5ccnnc5)sc4-c4ccc(F)cc43)cc2)c1 | 7.30 to 8.00
O=C(Nc1ccc(C(=O)N2CCc3sc(-c4nc5ccccc5[nH]4)cc3-c3ccccc32)cc1)c1cc2c(nc1N1CC3(CCOCC3)C1)CCC2 | 7.30 to 8.00

---

pEC50 reference
- Tested on: Human RSV-A (“Long” strain)
- Method: RSV in vitro cytoprotection assay (CPE, ATPlite) in HEp-2 cells
- Type: cell-based
- Cond: human respiratory syncytial virus, 96 h; HEp-2 cells, 4-day incubation, ATPlite readout; read-out: Human RSV-A (“Long” strain) EC50
pEC50: −log10 of the molar value.

Cpd Smiles | pEC50
Cc1cnc(N2CC3(CCOCC3)C2)c(C(=O)Nc2ccc(C(=O)N3CCc4cc(C(=O)Nc5ncc(C)o5)sc4-c4ccc(F)cc43)cc2)c1 | > 8.00
Cc1ccc(C(=O)Nc2ccc(C(=O)N3CCc4cc(C(=O)Nc5c(F)cccc5Cl)oc4-c4ccccc43)cc2)c(N2CC3(CCOCC3)C2)n1 | > 8.00
O=C(Nc1c(F)cccc1F)c1cc2c(s1)-c1ccc(F)cc1N(C(=O)c1ccc(NC(=O)c3cccnc3N3CCCOCC3)cc1)CC2 | < 7.30

---

- Tested on: Human RSV-A (“Long” strain)
- Method: RSV in vitro cytoprotection assay (CPE, ATPlite) in HEp-2 cells
- Assay type: cell-based
- Cond: human respiratory syncytial virus, 96 h; HEp-2 cells, 4-day incubation, ATPlite readout; read-out: Human RSV-A (“Long” strain) EC50
Readout Name: EC50

Compound | Endpoint Result
O=C(Nc1ccc(C(=O)N2CCc3nc(-c4nc5ccccc5[nH]4)oc3-c3ccccc32)cc1)c1cccnc1N1CC2(CCOCC2)C1 [Example 109] | 10 to 50 nM
N#Cc1cnc(N2CC3(CCOCC3)C2)c(C(=O)Nc2ccc(C(=O)N3CCc4cc(C(=O)Nc5c(Cl)cccc5Cl)sc4-c4ccc(F)cc43)cc2)c1 [Example 18] | 10 to 50 nM
O=C(Nc1c(F)cc(F)cc1Cl)c1cc2c(s1)-c1ccc(F)cc1N(C(=O)c1ccc(NC(=O)c3cc4ccccc4nc3N3CCCS(=O)(=O)CC3)cc1)CC2 [Example 34] | > 50 nM

Sourced from patent US11091501B2
